- EXPERIMENTAL_PROTOCOL: Thermodynamic solubility of elafibranor in aqueous buffers and cosolvents
- Assay type: physicochemical
- MEASUREMENT_PARAMETERS: aqueous buffer, 23 °C, pH 8.5, aqueous buffer, thermodynamic from solid
READOUT_LABEL: solubility (mM)
Number only, in mM; omit the unit.

Form field solubility, entry CSc1ccc(C(=O)/C=C/c2cc(C)c(OC(C)(C)C(=O)O)c(C)c2)cc1 [elafibranor] : 4.42

---

- EXPERIMENTAL_PROTOCOL: Thermodynamic solubility of elafibranor in aqueous buffers and cosolvents
- Type: physicochemical
- MEASUREMENT_PARAMETERS: aqueous buffer, 23 °C, pH 4.6, aqueous buffer, thermodynamic from solid
READOUT_LABEL: solubility

Form field solubility, entry CSc1ccc(C(=O)/C=C/c2cc(C)c(OC(C)(C)C(=O)O)c(C)c2)cc1 [elafibranor] : 114 µM
